# assaySystem: recombinant rat MASP2 active protease (amino acids 296-685, C-terminal His Tag) (rat, UniProt Q9JJS8 296-685)
# Sequence (Q9JJS8 other isoform, or with tags, fused parts or gaps limits assumed): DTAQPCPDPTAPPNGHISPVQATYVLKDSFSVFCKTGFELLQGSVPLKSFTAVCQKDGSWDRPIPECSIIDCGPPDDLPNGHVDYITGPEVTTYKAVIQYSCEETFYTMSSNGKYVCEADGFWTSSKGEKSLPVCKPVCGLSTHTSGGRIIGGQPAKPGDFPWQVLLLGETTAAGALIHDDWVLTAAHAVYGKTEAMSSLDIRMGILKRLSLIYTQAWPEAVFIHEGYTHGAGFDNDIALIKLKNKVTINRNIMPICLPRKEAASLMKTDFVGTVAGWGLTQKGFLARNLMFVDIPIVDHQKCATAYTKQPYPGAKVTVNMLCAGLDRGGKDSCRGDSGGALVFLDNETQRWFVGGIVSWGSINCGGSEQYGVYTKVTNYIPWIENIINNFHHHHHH
# assayNotes: cell-based or functional assay
Numbered stars: 1 amine (or outer) side, 2 acyl side, 3 side chain; on linkers, the order of the positions; unused ones are H or OH. Bridge positions count the residues as written; N and C are the ends. Square brackets hold non-standard residues; d marks the D form. Ends that are not written are not given here. Nip(3R) = O=C([C@@H]1CCCN([*:1])C1)[*:2]; Oic = O=C(O)[C@@H]1C[C@@H]2CCCC[C@@H]2N1; tBuAla = CC(C)(C)C[C@H](N)C(=O)O; PEG5 = NCCOCCOCCOCCOCCOCCC(=O)O; Pen = CC(C)(S)[C@H](N)C(=O)O; NMeC = CN[C@@H](CS)C(=O)O; Sar = CNCC(=O)O
What rat MASP2 IC50 was measured for each of the following?
Lab book: enter the figure in nM, no units written.

Exercise: Bench note: what rat MASP2 IC50 did AICSRSLP[Oic]I[Pen]IPD-OH (disulfide 3-11) [Example 5: AIC+SRSLP-(Oic)-I-(Pen)+IPD-OH (salt free form)] show?
Solution: 49

Exercise: Find the recorded rat MASP2 IC50 belonging to [Sar]ICSRSLPPICIPD-NH2 (disulfide 3-11; N-terminus assumed; SMILES CC[C@H](C)[C@H](NC(=O)CNC)C(=O)N[C@H]1CSSC[C@@H](C(=O)N[C@H](C(=O)N2CCC[C@H]2C(=O)N[C@@H](CC(=O)O)C(N)=O)[C@@H](C)CC)NC(=O)[C@H]([C@@H](C)CC)NC(=O)[C@@H]2CCCN2C(=O)[C@@H]2CCCN2C(=O)[C@H](CC(C)C)NC(=O)[C@H](CO)NC(=O)[C@H](CCCNC(=N)N)NC(=O)[C@H](CO)NC1=O) [Example 271: ((N-Me)G)-IC+SRSLPPIC+IPD-NH2] and report it.
Solution: 55.2

Exercise: Suppose we examine the binder [Sar]ICSRSLP[Oic]I[Pen]IP-{PEG5-NH2} (disulfide 3-11) [Example 97: ((N-Me)G)-IC+SRSLP-(Oic)-I-(Pen)+IP-(PEG4(19 atoms))-NH2] ; what rat MASP2 IC50 value has been reported?
Solution: 51

Exercise: What value of rat MASP2 IC50 has been reported for the following binder? [Nip(3R)]ICSRSLP[Oic]I[Pen]I-OH (disulfide 3-11; N-terminus assumed; SMILES CC[C@H](C)[C@H](NC(=O)[C@H]1NC(=O)[C@H]([C@@H](C)CC)NC(=O)[C@@H]2C[C@@H]3CCCC[C@@H]3N2C(=O)[C@@H]2CCCN2C(=O)[C@H](CC(C)C)NC(=O)[C@H](CO)NC(=O)[C@H](CCCNC(=N)N)NC(=O)[C@H](CO)NC(=O)[C@@H](NC(=O)[C@@H](NC(=O)[C@@H]2CCCNC2)[C@@H](C)CC)CSSC1(C)C)C(=O)O) [Example 459: ((R)-Piperidine-3-carboxylic acid)-IC+SRSLP-(Oic)-I-(Pen)+I-OH]
Solution: 51

Exercise: Tell me the measured rat MASP2 IC50 of GICSRS[tBuAla]P[Oic]I[NMeC]IPD-NH2 (disulfide 3-11; N-terminus assumed; SMILES CC[C@H](C)[C@H](NC(=O)CN)C(=O)N[C@H]1CSSC[C@@H](C(=O)N[C@H](C(=O)N2CCC[C@H]2C(=O)N[C@@H](CC(=O)O)C(N)=O)[C@@H](C)CC)N(C)C(=O)[C@H]([C@@H](C)CC)NC(=O)[C@@H]2C[C@@H]3CCCC[C@@H]3N2C(=O)[C@@H]2CCCN2C(=O)[C@H](CC(C)(C)C)NC(=O)[C@H](CO)NC(=O)[C@H](CCCNC(=N)N)NC(=O)[C@H](CO)NC1=O) [Example 212: GIC+SRS-((tBu)A)-P-(Oic)-I-((N-Me)C)+IPD-NH2] , please.
Solution: 34.5
